species: Homo sapiens; assay: Selectivity index, ratio of IC50 for inhibition of human recombinant MAO-A expressed in baculovirus-infected BTI cells to IC50 for inhibition of human recombinant MAO-B expressed in baculovirus-infected BTI cells
Each entry below carries its recorded Ratio IC50.
measured-parameter: Ratio IC50

INSERT INTO assay_data (chemical_structure, recorded_result) VALUES
  ('O=C(/C=C/c1ccc(Cl)cc1)c1ccccc1O', 7.7),
  ('CCN(C)C(=O)Oc1ccccc1C(=O)/C=C/c1ccc(F)cc1', 20.1),
  ('CN(C)C(=O)Oc1ccccc1C(=O)/C=C/c1ccc(F)cc1', 11.7),
  ('COc1cccc(/C=C/C(=O)c2ccccc2O)c1', 10.5),
  ('CCN(CC)C(=O)Oc1ccccc1C(=O)/C=C/c1ccc(F)cc1', 24.9),
  ('COc1ccc(/C=C/C(=O)c2ccccc2O)cc1', 40.9),
  ('O=C(/C=C/c1ccc(O)cc1)c1ccccc1O', 82.6),
  ('O=C(/C=C/c1ccc(F)cc1)c1ccccc1O', 57.2),
  ('O=C(/C=C/c1cccc(O)c1)c1ccccc1O', 29.9),
  ('O=C(/C=C/c1ccc(Br)cc1OC(F)(F)F)c1ccccc1O', 22.9);

These measurements were taken from ChEMBL document CHEMBL5346920.
